Tested on: anaesthetised Sprague-Dawley male rats
Test: in vivo duration of action, blood pressure test in anaesthetised rats
Design: species or system rat
Settings: ratio of decay rate of diastolic blood pressure response, AVP 0.1 nmol/kg i.v. to equieffective dose of compound; dibenamine-pretreated rats
Starred links: 1 amine or outer side, 2 acyl side, 3 side chain; linkers in the order of their positions; H or OH if unused. Positions of bridges follow the written chain, without caps; N, C: chain ends. Non-standard residues stand in square brackets, D forms with d. Residues, ends and D or L forms follow the SMILES beside them. X1 = CCNCCC[C@H](N[*:1])C(=O)[*:2]; Orn = NCCC[C@H](N)C(=O)O; Dab = NCC[C@H](N)C(=O)O
Some compounds, each annotated with its measured in vivo duration relative to AVP.
In your answer, state the number alone without any accompanying words.

The examples below pair each entry with its known result.
{"Compound": "CCNCCC[C@H](NC(=O)[C@@H]1CCCN1C(=O)[C@@H]1CSSC[C@H](N)C(=O)N[C@@H](Cc2ccccc2)C(=O)N[C@@H]([C@@H](C)CC)C(=O)N[C@@H](CCC(N)=O)C(=O)N[C@@H](CC(N)=O)C(=O)N1)C(=O)NCC(N)=O [Compound 6] (H-CFIQNCP[X1]G-NH2; disulfide 1-6; N-terminus and C-terminus assumed)", "Measured number": 1.9}
{"Compound": "CCNC(=O)C[C@@H]1NC(=O)[C@H]([C@@H](C)CC)NC(=O)[C@H](Cc2ccccc2)NC(=O)[C@@H](N)CSSC[C@@H](C(=O)N2CCC[C@H]2C(=O)N[C@@H](CCN)C(=O)NCC(N)=O)NC(=O)[C@H](CC(N)=O)NC1=O [Compound 4, [Phe^2,Asn(Et)^4, Dbu^8]VT] (H-CFID(NHEt)NCP[Dab]G-NH2; disulfide 1-6; N-terminus and C-terminus assumed)", "Measured number": 1.8}

Here's the next entry for you.
Req: Given CC[C@H](C)[C@@H]1NC(=O)[C@H](Cc2ccccc2)NC(=O)[C@@H](N)CSSC[C@@H](C(=O)N2CCC[C@H]2C(=O)N[C@@H](CCCN)C(=O)NCC(N)=O)NC(=O)[C@H](CC(N)=O)NC(=O)[C@H](CCC(=O)NC)NC1=O [Compound 19] (H-CFIE(NHMe)NCP[Orn]G-NH2; disulfide 1-6) , state its recorded in vivo duration relative to AVP.
Resp: 1.6

Data origin: patent US8222202B2
